Test: Growth inhibition of human OVCAR3 cells incubated for 48 hrs by sulforhodamine B assay
Format: functional
Settings: OVCAR-3, 48 h
Collected GI50 values appear next to each entry.
Write the answer as a number in µM, unit excluded.

[
  {
    "compoundSmiles": "CC(C)[C@@]12C[C@@H](NC(=O)CO)[C@@](C)(O1)[C@@H]1CC[C@@H](C)[C@H]1[C@@H]2OC(=O)c1ccc2ccccc2c1",
    "u": "µM",
    "GI50": 17
  },
  {
    "compoundSmiles": "CC(C)[C@@]12C[C@@H](NC(=O)CO)[C@@](C)(O1)[C@@H]1CC[C@@H](C)[C@H]1[C@@H]2OC(=O)/C=C/c1ccccc1",
    "u": "µM",
    "GI50": 14.8
  }
]

The record that follows has no GI50 shown yet.
INPUT: Using the record for C/C(=C\C(=O)O[C@H]1[C@@H]2[C@H](C)CC[C@H]2[C@]2(C)O[C@@]1(C(C)C)C[C@H]2NC(=O)CO)c1ccccc1 , report its GI50.
OUTPUT: 32.4
